system: human synovial cells derived from OA patients (HFLS-OA); test: Suppressive effect on proliferation of human synovial cells (HFLS-OA) stimulated by TNF-α; type: cell-based; conditions: TNF-α 10 ng/mL, 5 days, [3H]-deoxyuridine uptake, concentration calculated as MTX
Property Name: IC50 (nM)
Numeric answer only, unit nM assumed.

Quick one: IC50 for CN(Cc1cnc2nc(N)nc(N)c2n1)c1ccc(C(=O)N[C@@H](CCC(=O)O)C(=O)O)cc1 [MTX alone, methotrexate] ?
310

Reference for the values: patent US7807675B2
